What pIC50 was measured for each of the following?
# system: human recombinant HDAC6 (Homo sapiens, UniProt Q9UBN7)
# Sequence (Q9UBN7 whole entry): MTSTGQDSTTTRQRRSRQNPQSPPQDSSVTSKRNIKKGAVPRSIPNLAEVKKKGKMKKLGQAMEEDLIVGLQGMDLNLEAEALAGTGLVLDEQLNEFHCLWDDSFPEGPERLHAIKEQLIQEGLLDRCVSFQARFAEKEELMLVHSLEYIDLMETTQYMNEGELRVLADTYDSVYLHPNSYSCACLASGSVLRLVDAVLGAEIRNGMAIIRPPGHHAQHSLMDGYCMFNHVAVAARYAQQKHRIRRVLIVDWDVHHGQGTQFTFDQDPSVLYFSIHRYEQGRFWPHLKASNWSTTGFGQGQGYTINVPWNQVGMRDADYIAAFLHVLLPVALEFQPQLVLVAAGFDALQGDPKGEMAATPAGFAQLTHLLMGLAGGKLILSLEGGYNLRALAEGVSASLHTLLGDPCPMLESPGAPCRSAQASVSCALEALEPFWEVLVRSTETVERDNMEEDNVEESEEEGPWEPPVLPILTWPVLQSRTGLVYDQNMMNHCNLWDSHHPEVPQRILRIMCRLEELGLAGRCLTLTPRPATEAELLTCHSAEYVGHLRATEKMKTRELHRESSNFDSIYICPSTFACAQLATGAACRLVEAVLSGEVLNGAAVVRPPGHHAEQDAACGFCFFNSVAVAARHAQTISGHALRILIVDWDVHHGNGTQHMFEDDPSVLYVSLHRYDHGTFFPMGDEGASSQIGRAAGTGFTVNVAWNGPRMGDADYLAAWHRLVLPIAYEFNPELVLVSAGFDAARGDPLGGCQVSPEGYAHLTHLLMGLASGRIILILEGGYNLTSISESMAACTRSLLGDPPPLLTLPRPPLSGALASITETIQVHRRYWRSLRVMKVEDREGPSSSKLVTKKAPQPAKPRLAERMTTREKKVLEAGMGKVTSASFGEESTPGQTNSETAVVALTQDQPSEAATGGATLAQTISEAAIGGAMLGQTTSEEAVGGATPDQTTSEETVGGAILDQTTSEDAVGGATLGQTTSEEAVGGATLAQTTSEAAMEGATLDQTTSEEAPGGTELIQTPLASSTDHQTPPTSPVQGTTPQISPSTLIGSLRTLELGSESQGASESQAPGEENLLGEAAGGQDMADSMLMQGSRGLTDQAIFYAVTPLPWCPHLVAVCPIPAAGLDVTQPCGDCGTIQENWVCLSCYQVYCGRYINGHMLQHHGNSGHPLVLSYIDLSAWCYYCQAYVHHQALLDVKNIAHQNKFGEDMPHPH
# assayProtocol: In vitro histone deacetylase assay: enzymatic HDAC6 electrophoretic mobility shift assay
# conditionLabel: full length human recombinant HDAC6 1 nM, 2 μM peptide substrate RHKK(Ac)-NH2, 25° C.; read-out: Inhibitory Concentration (IC50) against HDAC6, Activity Range
pIC50: −log10 of the molar value.

// solved cases for pIC50 follow
[
  {
    "chemSmiles": "O=C(NO)c1ccc2c(c1)OC[C@H](c1ccccc1)N(C(=O)Nc1ccncc1)C2",
    "pIC50": "≥ 7.00"
  },
  {
    "chemSmiles": "O=C(NO)c1ccc2c(c1)OC[C@H](c1ccccc1)N(C(=O)Nc1cccnc1)C2",
    "pIC50": "≥ 7.00"
  },
  {
    "chemSmiles": "O=C(NO)c1ccc2c(c1)OC[C@H](c1ccccc1)N(S(=O)(=O)c1ccc(F)cc1)C2",
    "pIC50": "6.30 to 7.00"
  },
  {
    "chemSmiles": "COc1ccc(CN2Cc3ccc(C(=O)NO)cc3OC[C@H]2c2ccccc2)cc1",
    "pIC50": "≥ 7.00"
  },
  {
    "chemSmiles": "O=C(NO)c1ccc2c(c1)OC[C@H](c1ccc(C(F)(F)F)cc1)N(C(=O)N1CCOCC1)C2",
    "pIC50": "≥ 7.00"
  }
]

Indicate the recorded pIC50 value for this compound: COc1ccc(CN2Cc3ccc(C(=O)NO)cc3OC[C@@H]2c2ccccc2)cc1 ≥ 7.00
